B1: 2M8U (parent)
chain: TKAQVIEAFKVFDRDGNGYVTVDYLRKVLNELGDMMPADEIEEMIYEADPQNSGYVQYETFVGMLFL

# Variants of: B1
# assay.remarks: folding stability dG (cDNA display proteolysis); higher = more stable
# assay.context: PBS, room temperature
Below: a set of entries, each annotated with reported folding stability dG.
Expressed in kcal/mol, but write only the number.

Illustrative cases are given below, each with its answer.
Data point: S53C ; folding stability dG = 3.18

Lab note: measured folding stability dG of D34G was 3.42

The reported folding stability dG of the variant M64Y was 3.25

Query M35P yields folding stability dG of 3.12

Notebook: L25W , folding stability dG read as 2.53

The reported value for F9Q in terms of folding stability dG is 2.08

variant Y19A , folding stability dG observed: 2.7

// folding stability dG lookup, variant = I41L , result: 3.83

Others:
Sample E59G ; folding stability dG observed: 2.76

Looking up L65C , I see its folding stability dG listed as 2.6

// folding stability dG value for V62S : 2.36

# folding stability dG (variant: M64Q ) is 3.53

Briefly, folding stability dG measured for D13P : 1.49

E47V yielded folding stability dG of 3.85

Notebook: N52A , folding stability dG read as 3.38

folding stability dG measured on D34S = 3.32

Entry I45N ; folding stability dG = 2.17

// F66M : folding stability dG value = 2.88

The variant listed as Y19K has a reported folding stability dG of 3.07

Reported folding stability dG ( V56G ) = 2.62

folding stability dG for F9S is 2.13

Sample K10P ; folding stability dG observed: 2.08
